IC50 by entry:
target: αvβ3 integrin (Homo sapiens, UniProt P05106+P06756); experiment: Inhibition of biotinylated LXW7 binding to αvβ3-K562 cells (flow cytometry); parameters: expressed in transfected cells; host or cells: K562 (gift of Dr. Yoshikazu Takada, UC Davis); conditions: LXW9-92: inhibiting the binding of biotinylated LXW7 against αvβ3-K562 cells; class symbols
Sequence (P06756 31-889 limits assumed): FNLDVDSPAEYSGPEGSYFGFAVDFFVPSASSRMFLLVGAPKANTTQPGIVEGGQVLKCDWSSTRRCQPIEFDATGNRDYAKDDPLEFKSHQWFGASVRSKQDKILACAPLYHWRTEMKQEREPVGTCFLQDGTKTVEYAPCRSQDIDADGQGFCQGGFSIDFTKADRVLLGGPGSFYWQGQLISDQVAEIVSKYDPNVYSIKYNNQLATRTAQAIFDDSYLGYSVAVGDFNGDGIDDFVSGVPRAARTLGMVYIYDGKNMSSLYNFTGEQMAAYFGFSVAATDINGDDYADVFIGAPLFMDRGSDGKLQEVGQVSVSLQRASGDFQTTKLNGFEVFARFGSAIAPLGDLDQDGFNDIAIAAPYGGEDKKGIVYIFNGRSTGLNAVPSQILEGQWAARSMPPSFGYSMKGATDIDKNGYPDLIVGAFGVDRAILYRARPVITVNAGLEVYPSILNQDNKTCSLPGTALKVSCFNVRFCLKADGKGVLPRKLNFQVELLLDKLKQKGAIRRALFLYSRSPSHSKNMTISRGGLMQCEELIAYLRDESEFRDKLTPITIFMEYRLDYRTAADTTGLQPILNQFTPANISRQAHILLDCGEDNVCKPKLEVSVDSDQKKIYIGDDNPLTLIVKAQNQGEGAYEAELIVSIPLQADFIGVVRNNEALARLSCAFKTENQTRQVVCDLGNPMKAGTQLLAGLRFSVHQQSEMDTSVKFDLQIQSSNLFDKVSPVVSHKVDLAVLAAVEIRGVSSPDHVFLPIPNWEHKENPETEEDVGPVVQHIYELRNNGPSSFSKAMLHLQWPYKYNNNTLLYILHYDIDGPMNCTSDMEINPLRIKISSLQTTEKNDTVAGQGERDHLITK
Sequence (P06756 891-1048 partner limits assumed): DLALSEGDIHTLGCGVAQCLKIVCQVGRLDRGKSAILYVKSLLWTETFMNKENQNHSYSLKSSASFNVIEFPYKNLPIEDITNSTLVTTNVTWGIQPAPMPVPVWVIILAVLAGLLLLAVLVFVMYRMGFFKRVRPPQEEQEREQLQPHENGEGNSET
Sequence (P05106 27-788): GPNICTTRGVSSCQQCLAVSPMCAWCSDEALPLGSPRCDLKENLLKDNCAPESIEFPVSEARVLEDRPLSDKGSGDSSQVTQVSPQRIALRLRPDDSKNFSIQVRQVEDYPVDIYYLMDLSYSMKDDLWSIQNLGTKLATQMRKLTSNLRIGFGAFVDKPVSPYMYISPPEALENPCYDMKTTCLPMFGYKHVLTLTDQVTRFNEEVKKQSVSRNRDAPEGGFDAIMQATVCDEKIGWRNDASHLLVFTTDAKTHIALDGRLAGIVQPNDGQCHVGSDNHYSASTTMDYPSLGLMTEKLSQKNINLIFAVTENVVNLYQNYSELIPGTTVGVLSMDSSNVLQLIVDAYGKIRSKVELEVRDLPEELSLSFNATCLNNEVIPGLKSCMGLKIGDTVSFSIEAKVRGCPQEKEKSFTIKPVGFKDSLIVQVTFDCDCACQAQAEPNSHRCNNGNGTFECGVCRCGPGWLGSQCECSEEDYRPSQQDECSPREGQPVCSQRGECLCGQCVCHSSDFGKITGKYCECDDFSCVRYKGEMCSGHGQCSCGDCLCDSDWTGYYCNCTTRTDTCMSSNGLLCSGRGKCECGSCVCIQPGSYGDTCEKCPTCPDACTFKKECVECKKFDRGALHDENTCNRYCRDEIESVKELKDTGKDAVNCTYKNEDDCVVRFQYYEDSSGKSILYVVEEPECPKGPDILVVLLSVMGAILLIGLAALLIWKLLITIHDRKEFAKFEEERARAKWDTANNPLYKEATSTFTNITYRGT
Bridge positions count the residues as written; N and C are the ends. Square brackets hold non-standard residues; d marks the D form. Peptide text beside a SMILES is read from it. * marks the point of attachment. Benzoyl(3,5-(OH)2) = O=C(c1cc(O)cc(O)c1)*

These solved cases illustrate the format of a correct answer.
molecule: N=C(N)NCCC[C@@H]1NC(=O)CNC(=O)[C@@H](N)CSSC[C@@H](C(N)=O)NC(=O)[C@@H](Cc2cscn2)NC(=O)[C@@H](CC(=O)O)NC(=O)[C@H](CC(=O)O)NC(=O)CNC1=O [LXW39, CGRGDd-DTha-C]
assay-metric: IC50
result-value: > 10 µM
--
molecule: N=C(N)NCCC[C@@H]1NC(=O)CNC(=O)[C@H](N)CSSC[C@H](C(N)=O)NC(=O)[C@@H](Cc2cccs2)NC(=O)[C@@H](CC(=O)O)NC(=O)[C@H](CC(=O)O)NC(=O)CNC1=O [LXW67, cGRGDd-D2Thi-c]
assay-metric: IC50
result-value: < 1 µM
--
molecule: CC(C)[C@H]1NC(=O)[C@@H](CC(=O)O)NC(=O)[C@H](CC(=O)O)NC(=O)CNC(=O)[C@H](CCCNC(=N)N)NC(=O)CNC(=O)[C@H](NC(=O)c2cc(O)cc(O)c2)CSSC[C@H](C(N)=O)NC1=O [LXW83, 3,5-dihydroxy beznoyl-cGRGDdvc] ({Benzoyl(3,5-(OH)2)}-[dC]GRGD[dD][dV][dC]-NH2; disulfide 1-8)
assay-metric: IC50
result-value: < 1 µM

Please look at the following molecule next.
What does the data say about its IC50? Entry: C#CC[C@H]1NC(=O)[C@@H](CC(=O)O)NC(=O)[C@H](CC(=O)O)NC(=O)CNC(=O)[C@H](CCCNC(=N)N)NC(=O)CN(C)C(=O)[C@@H](N)CSSC[C@@H](C(N)=O)NC1=O [LXW35, C-Sar-RGDd-DPra-C] > 10 µM
